# system-tested: full length Stat3 (Homo sapiens, UniProt P40763)
# Construct: Aliquots of 50 μl of 80 nM full length Stat^3a and 20 nM of probe
# Sequence (P40763 whole entry, species assumed): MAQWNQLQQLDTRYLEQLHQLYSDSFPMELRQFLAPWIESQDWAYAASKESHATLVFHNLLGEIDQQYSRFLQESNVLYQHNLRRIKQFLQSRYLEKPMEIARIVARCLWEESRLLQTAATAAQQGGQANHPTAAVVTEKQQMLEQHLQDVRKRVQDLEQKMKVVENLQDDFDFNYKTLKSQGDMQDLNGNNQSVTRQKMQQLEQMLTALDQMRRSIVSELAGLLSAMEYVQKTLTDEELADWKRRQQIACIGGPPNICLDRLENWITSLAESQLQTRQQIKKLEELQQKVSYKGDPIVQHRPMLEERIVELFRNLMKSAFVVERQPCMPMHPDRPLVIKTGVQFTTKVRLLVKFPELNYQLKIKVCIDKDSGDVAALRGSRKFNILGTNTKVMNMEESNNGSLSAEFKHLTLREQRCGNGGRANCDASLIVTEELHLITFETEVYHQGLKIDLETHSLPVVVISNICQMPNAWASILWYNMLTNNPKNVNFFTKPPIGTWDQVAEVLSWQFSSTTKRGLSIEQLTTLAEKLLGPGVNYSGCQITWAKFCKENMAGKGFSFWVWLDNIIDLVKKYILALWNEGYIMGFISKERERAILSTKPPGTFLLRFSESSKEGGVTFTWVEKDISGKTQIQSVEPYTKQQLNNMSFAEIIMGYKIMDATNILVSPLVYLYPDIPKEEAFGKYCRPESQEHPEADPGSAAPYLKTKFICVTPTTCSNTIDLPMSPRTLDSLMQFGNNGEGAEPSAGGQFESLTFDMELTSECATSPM
# procedure-details: Fluorescence polarization assay, competition with FP probe for full length Stat3
# Assay type: binding
# condition-notes: assay not named; presumably fluorescence polarization; read-out: IC50 of the FIG. 15 compound
measure-name: pIC50
# pIC50: negative log10 of molar concentration; output just the value

Sample NC(=O)CCC(NC(=O)C1CCC2CCC(NC(=O)C=Cc3ccc(OP(=O)(O)O)cc3)C(=O)N21)C(=O)NCc1ccccc1 (stereo not shown) , system: full length Stat3 (Homo sapiens, UniProt P40763). Its pIC50 is 6.40
